# System: SUDHL10
# Protocol description: Induction of cytotoxicity (CellTiter-Glo, 5 h), SUDHL10
# Run conditions: read-out: Cytotox SUDHL10 [M] (median); SUDHL10 cells, cytotoxicity induction, CellTiter-Glo, 5 h, median
Measured property: IC50 (M)
Your answer should be a plain number; it is taken to be in M.

Molecule	Result unit	Meas value
Cc1nn(C)c2c1-c1cccc3c(CCCOc4cccc5cc(C(F)(F)F)ccc45)c(C(=O)O)n(c13)CCCCOC2	M	2.04e-05

Proceeding to the next molecule to report its IC50.
IN: Any idea what IC50 was measured for CCc1nn(C)c2c1-c1cccc3c(CCCOc4cccc5cc(C(F)(F)F)ccc45)c(C(=O)O)n(c13)CCCCOC2 (single isomer, unassigned; enantiomer 2) ?
OUT: 1.58e-05
